Measurement protocol: Cmax in human at 50 mg, po dosed as slow release formulation
Applied conditions: in vivo
Reported property: Cmax
Reply with the number, then its unit.

compound CN1CC[C@]23c4c5ccc(O)c4O[C@H]2[C@@H](O)C=C[C@H]3[C@H]1C5 , Cmax observed: 30 nM

----------
Measurement protocol: Cmax in human at 10 mg, po dosed as controlled release formulation
Assay type: ADME, organism-based
Parameters: dose 10 mg, route oral
Applied conditions: in vivo
Reported property: Cmax (nM)
Dear colleague, please return just the value in nM, with no unit written.

COc1ccc2c3c1O[C@H]1C(=O)CC[C@@]4(O)[C@@H](C2)N(C)CC[C@]314 [OXYCODONE] yielded Cmax of 50

----------
Measurement protocol: Cmax in human at 5 mg, po dosed as immediate release formulation
Assay type: ADME, organism-based
Set-up: dose 5 mg, route oral
Applied conditions: in vivo
Reported property: Cmax
A complete answer gives the number followed by the unit.

For this compound ( COc1ccc2c3c1O[C@H]1C(=O)CC[C@@]4(O)[C@@H](C2)N(C)CC[C@]314 [OXYCODONE] ), measured Cmax is 50 nM

----------
System name: UniProt:O15245
Measurement protocol: Inhibition of human OCT1 expressed in HEK293 cells assessed as reduction in ASP+ substrate uptake by microplate reader based analysis
compounds and their reported IC50
Your answer is read as µM, so omit the unit and give the number.

Here is how some compounds turned out for IC50.
[
  {
    "Compound": "O=C1CC[C@@]2(O)[C@H]3Cc4ccc(O)c5c4[C@@]2(CCN3CC2CC2)[C@H]1O5 [NALTREXONE]",
    "Unit text": "µM",
    "IC50": 158
  },
  {
    "Compound": "COc1ccc2c3c1O[C@H]1C(=O)CC[C@H]4[C@@H](C2)N(C)CC[C@]314 [HYDROCODONE]",
    "Unit text": "µM",
    "IC50": 537
  },
  {
    "Compound": "C[N+]1(CC2CC2)CC[C@]23c4c5ccc(O)c4O[C@H]2C(=O)CC[C@@]3(O)[C@H]1C5 (stereo not given in full) [METHYLNALTREXONE]",
    "Unit text": "µM",
    "IC50": 234
  },
  {
    "Compound": "CCC1(c2cccc(O)c2)CCCCN(C)C1 (stereo not given)",
    "Unit text": "µM",
    "IC50": 19
  }
]

The compound listed as COc1ccc2c3c1O[C@H]1C(=O)CC[C@@]4(O)[C@@H](C2)NCC[C@]314 shows IC50 equal to 200

Recorded result, CCOC(=O)[C@@]1(c2ccccc2)CCC=C[C@@H]1N(C)C , IC50: 38.7

Reported IC50 for COc1ccc2c3c1O[C@H]1[C@@H](O)C=C[C@H]4[C@@H](C2)N(C)CC[C@@]341 was 236

GET /value?item= CN1CC[C@]23c4c5ccc(O)c4O[C@H]2C(=O)CC[C@H]3[C@H]1C5 [HYDROMORPHONE] &field=IC50 returns 138

Briefly, IC50 measured for CCOC(=O)C1(c2ccccc2)CCN(C)CC1 : 22.3

The measured IC50 associated with CC[C@@H](c1cccc(O)c1)[C@@H](C)CN(C)C reads 21.9

----------
System name: OCT1 (SLC22A1) (Homo sapiens, UniProt O15245)
Sequence (O15245 whole entry): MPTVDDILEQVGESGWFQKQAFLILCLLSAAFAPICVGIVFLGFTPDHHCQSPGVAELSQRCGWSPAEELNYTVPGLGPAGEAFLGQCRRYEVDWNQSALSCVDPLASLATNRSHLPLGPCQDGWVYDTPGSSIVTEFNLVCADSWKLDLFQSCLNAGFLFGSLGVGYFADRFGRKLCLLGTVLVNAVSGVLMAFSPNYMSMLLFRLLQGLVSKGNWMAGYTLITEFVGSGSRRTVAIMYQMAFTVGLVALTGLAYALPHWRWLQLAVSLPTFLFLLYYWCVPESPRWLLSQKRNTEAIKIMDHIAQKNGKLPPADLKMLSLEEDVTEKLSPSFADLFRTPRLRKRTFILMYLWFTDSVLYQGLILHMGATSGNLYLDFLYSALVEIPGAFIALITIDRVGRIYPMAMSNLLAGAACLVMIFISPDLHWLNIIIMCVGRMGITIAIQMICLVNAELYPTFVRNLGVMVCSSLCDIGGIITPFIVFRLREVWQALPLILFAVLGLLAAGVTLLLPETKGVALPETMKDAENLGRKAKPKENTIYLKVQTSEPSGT
Measurement protocol: Substrate activity at human OCT1 expressed in HEK293 cells assessed as increase in compound uptake at 0.05 uM incubated for 2 mins by LC-MS/MS analysis relative to control empty vector transfected cells
Format: cell-based
Applied conditions: HEK293 cells that express human OCT1, read-out: FC
So basically, if uptake ratio at 2 min, 0.05 µM comes in under 1 it's 1 (yes), and if it's 1 or more it's 0 (no).

Recorded results for 8 compounds are shown here.
[
  {
    "Compound": "COc1ccc2c3c1O[C@H]1[C@@H](O)C=C[C@H]4[C@@H](C2)N(C)CC[C@@]341 [CODEINE]",
    "Assigned label": "1 (yes)"
  },
  {
    "Compound": "CCOC(=O)C1(c2ccccc2)CCN(C)CC1 [MEPERIDINE]",
    "Assigned label": "0 (no)"
  },
  {
    "Compound": "COc1ccc2c3c1O[C@H]1C(=O)CC[C@@]4(O)[C@@H](C2)NCC[C@]314",
    "Assigned label": "0 (no)"
  },
  {
    "Compound": "COc1ccc2c3c1O[C@H]1C(=O)CC[C@H]4[C@@H](C2)N(C)CC[C@]314 [HYDROCODONE]",
    "Assigned label": "1 (yes)"
  },
  {
    "Compound": "CN1CC[C@@]23CCCC[C@@H]2[C@@H]1Cc1ccc(O)cc13 [DEXTRORPHAN]",
    "Assigned label": "0 (no)"
  },
  {
    "Compound": "CCC1(c2cccc(O)c2)CCCCN(C)C1 (stereo unspecified) [MEPTAZINOL]",
    "Assigned label": "1 (yes)"
  },
  {
    "Compound": "COc1ccc2c3c1O[C@H]1C(=O)CC[C@@]4(O)[C@@H](C2)N(C)CC[C@]314 [OXYCODONE]",
    "Assigned label": "1 (yes)"
  },
  {
    "Compound": "CCOC(=O)[C@@]1(c2ccccc2)CCC=C[C@@H]1N(C)C",
    "Assigned label": "0 (no)"
  }
]

Task item: Please determine if COc1ccc2c(c1)[C@@]13CCCC[C@H]1[C@@H](C2)NCC3 is below 1 in terms of uptake ratio at 2 min, 0.05 µM.
Reply: 0 (no)

Task item: Problem: For the compound COc1ccc2c(c1)[C@]13CCCC[C@@H]1[C@H](C2)N(C)CC3 [DEXTROMETHORPHAN] , is uptake ratio at 2 min, 0.05 µM under 1?
Reply: 0 (no)

Task item: Does the reported uptake ratio at 2 min, 0.05 µM of CC[C@@H](c1cccc(O)c1)[C@@H](C)CN(C)C [TAPENTADOL] stay below 1?
Reply: 1 (yes)
